System: NCI-H522 lung
Assay: NCI tumour cell line growth inhibition, 48 h
Where a SMILES comes first, the peptide text is derived from it. [ ]: non-standard residue; d: D form. The star is where a group is joined. ξ: configuration not given here. NMeF = CN[C@@H](Cc1ccccc1)C(=O)O; NMeV = CN[C@H](C(=O)O)C(C)C; ξNMeV = CNC(C(=O)O)C(C)C; Boc = CC(C)(C)OC(=O)*; OBn = c1ccc(CO*)cc1
Reported endpoint: TGI

Lab note: measured TGI of CC#CCCCC1(C)CCNC1=S (stereo not given) was > 10 µM

Lab note: measured TGI of `CCOC(=O)NN(C(=O)OCC)C(C(=O)c1ccccc1)N(NC(=O)OCC)C(=O)OCC` was > 100 µM

Lab note: measured TGI of CC(C)C(C(=O)N(C)[C@H](C(=O)N1CCC[C@H]1C(=O)N(C)[C@@H](Cc1ccccc1)C(=O)OCc1ccccc1)C(C)C)N(C)C(=O)[C@@H](NC(=O)OC(C)(C)C)C(C)C (stereo not given in full) (Boc-V[ξNMeV][NMeV]P[NMeF]-OBn) was > 100 µM

Lab note: measured TGI of `COc1cc(C(=O)n2nc(N)c3c(C)cc(C)nc32)cc(OC)c1OC` was > 100 µM

Next item in the queue.
Lab note: measured TGI of `CCCCCCCCCCCCCS(=O)(=O)NCC(N)=O` was > 100 µM
